# EXPERIMENTAL_TARGET: UniProtKB P41587
# PROTOCOL_TEXT: Antagonist activity at recombinant human N-terminal signal peptide/FLAG epitope-tagged Rluc8-fused VIPR2 expressed in HEK293 cells assessed as inhibition of VIP-induced human mVenus-beta-arrestin2 binding at 1 uM preincubated for 5 mins with luciferin, coelenterazine H followed by VIP addition measured after 5 mins by BRET assay relative to control
# Type: cell-based
REPORTED_ENDPOINT: inhibition (%)

[a] O=C(CCl)NC[C@@H](O)C[C@@H](Cc1ccccc1)C(=O)N[C@H]1c2ccccc2C[C@H]1O
[b] CC(C)CNc1ccc(S(=O)(=O)NC[C@@H](O)C[C@@H](Cc2ccccc2)C(=O)N[C@H]2c3ccccc3C[C@H]2O)cc1
[c] CNC(=O)c1ccc(S(=O)(=O)NC[C@@H](O)C[C@@H](Cc2ccccc2)C(=O)N[C@H]2c3ccccc3C[C@H]2O)cc1
Asked: Order the 3 compounds from highest to lowest inhibition. Return value: ordered labels per request.
Given back: a, b, c
(a: 23.7%, b: 5.2%, c: -1.6%)

* * *

# EXPERIMENTAL_TARGET: Vasoactive intestinal polypeptide receptor 2 (Homo sapiens)
# PROTOCOL_TEXT: Antagonist activity at recombinant human N-terminal signal peptide/FLAG epitope-tagged VIPR2 expressed in HEK293 cells co-expressing CAMYEL assessed as inhibition of VIP-induced cAMP accumulation at 0.5 uM preincubated for 5 mins with luciferin, coelenterazine H followed by VIP addition measured after 5 mins by BRET assay relative to control
# Format: functional, cell-based
REPORTED_ENDPOINT: inhibition (%)

[I] O=C(NC[C@@H](O)C[C@@H](Cc1ccccc1)C(=O)N[C@H]1c2ccccc2C[C@H]1O)c1ccccn1
[II] CCN(CC)C(=O)[C@@H](Cc1ccccc1)C[C@H](O)CNS(=O)(=O)c1ccc([N+](=O)[O-])cc1
[III] CS(=O)(=O)NC[C@@H](O)C[C@@H](Cc1ccccc1)C(=O)N[C@H]1c2ccccc2C[C@H]1O
Asked: Order the 3 compounds from highest to lowest inhibition. Return value: ordered labels per request.
Given back: III, I, II
(III: 21.4%, I: 14.9%, II: 0.5%)

[I] O=C(CCl)NC[C@@H](O)C[C@@H](Cc1ccccc1)C(=O)N[C@H]1c2ccccc2C[C@H]1O
[II] O=C(NC1CCCC1)[C@H](Cc1ccccc1)C[C@H](O)CNS(=O)(=O)c1ccc([N+](=O)[O-])cc1
Asked: Rank I against II by their inhibition values and give the higher one. Answer by quoting the chosen item's label.
Given back: I

[a] O=C(NC[C@@H](O)C[C@@H](Cc1ccccc1)C(=O)N[C@H]1c2ccccc2C[C@H]1O)c1ccco1
[b] CC(C)CS(=O)(=O)NC[C@@H](O)C[C@@H](Cc1ccccc1)C(=O)N[C@H]1c2ccccc2C[C@H]1O
Asked: For a and b , which recorded inhibition is lower? Answer by quoting the chosen item's label.
Given back: b

* * *

# EXPERIMENTAL_TARGET: Vasoactive intestinal polypeptide receptor 2 (Homo sapiens) (UniProt P41587)
# Sequence (whole entry): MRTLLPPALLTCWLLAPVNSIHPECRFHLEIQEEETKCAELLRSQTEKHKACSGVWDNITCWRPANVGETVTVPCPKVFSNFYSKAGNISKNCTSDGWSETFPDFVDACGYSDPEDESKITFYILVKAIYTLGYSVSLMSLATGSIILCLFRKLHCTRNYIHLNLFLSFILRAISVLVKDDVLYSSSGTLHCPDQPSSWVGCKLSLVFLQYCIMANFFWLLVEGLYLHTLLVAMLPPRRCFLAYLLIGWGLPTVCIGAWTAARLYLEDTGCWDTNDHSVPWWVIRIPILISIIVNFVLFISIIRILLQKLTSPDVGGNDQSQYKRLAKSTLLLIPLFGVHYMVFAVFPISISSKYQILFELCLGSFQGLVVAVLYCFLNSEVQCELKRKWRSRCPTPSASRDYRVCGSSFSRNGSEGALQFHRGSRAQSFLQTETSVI
# PROTOCOL_TEXT: Antagonist activity at recombinant human N-terminal signal peptide/FLAG epitope-tagged Rluc8-fused VIPR2 expressed in HEK293 cells assessed as inhibition of VIP-induced human mVenus-beta-arrestin2 binding at 0.5 uM preincubated for 5 mins with luciferin, coelenterazine H followed by VIP addition measured after 5 mins by BRET assay relative to control
# Format: cell-based
REPORTED_ENDPOINT: inhibition

// known answers, use as guide
CHEM_SMILES | EXPERIMENTAL_TARGET | inhibition
CC(C)c1cc(C(C)C)c(S(=O)(=O)NC[C@@H](O)C[C@@H](Cc2ccccc2)C(=O)N[C@H]2c3ccccc3C[C@H]2O)c(C(C)C)c1 | Vasoactive intestinal polypeptide receptor 2 (Homo sapiens) (UniProt P41587) | 29.7 to 49.1%
O=C(N[C@H]1c2ccccc2C[C@H]1O)[C@H](Cc1ccccc1)C[C@H](O)CNS(=O)(=O)c1ccc(C(=O)N2CCOCC2)cc1 | Vasoactive intestinal polypeptide receptor 2 (Homo sapiens) (UniProt P41587) | 4.1 to 10.1%

Here is the next item to consider.
Asked: What value of inhibition has been reported for the following compound? O=C([C@@H](Cc1ccccc1)C[C@H](O)CNS(=O)(=O)c1ccc([N+](=O)[O-])cc1)N1CCOCC1
Given back: 1.65 to 7%

* * *

# EXPERIMENTAL_TARGET: Vasoactive intestinal polypeptide receptor 2 (Homo sapiens, UniProt P41587)
# Sequence (P41587 whole entry): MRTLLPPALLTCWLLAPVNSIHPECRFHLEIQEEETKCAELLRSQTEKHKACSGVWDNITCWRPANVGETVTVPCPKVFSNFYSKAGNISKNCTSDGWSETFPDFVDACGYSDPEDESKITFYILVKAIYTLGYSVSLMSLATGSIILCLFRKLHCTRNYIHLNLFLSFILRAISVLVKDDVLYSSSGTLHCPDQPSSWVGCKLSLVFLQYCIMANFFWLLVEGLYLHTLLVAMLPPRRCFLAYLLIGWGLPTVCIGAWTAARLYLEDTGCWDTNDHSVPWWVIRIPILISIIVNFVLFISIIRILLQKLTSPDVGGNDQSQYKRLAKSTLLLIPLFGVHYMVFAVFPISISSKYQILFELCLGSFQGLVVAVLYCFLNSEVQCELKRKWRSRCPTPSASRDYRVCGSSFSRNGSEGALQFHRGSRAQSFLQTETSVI
# PROTOCOL_TEXT: Antagonist activity at recombinant human N-terminal signal peptide/FLAG epitope-tagged Rluc8-fused VIPR2 expressed in HEK293 cells assessed as inhibition of VIP-induced human mVenus-beta-arrestin2 binding preincubated for 5 mins with luciferin, coelenterazine H followed by VIP addition measured after 5 mins by BRET assay
# Format: cell-based
pIC50: −log10 of the molar value.
pIC50 reference

// known answers, use as guide
CHEM_SMILES | pIC50
Cc1ccc(S(=O)(=O)NC[C@@H](O)C[C@@H](Cc2ccccc2)C(=O)N[C@H]2c3ccccc3C[C@H]2O)cc1 | 5.70 to 5.93
O=C(N[C@H]1c2ccccc2C[C@H]1O)[C@H](Cc1ccccc1)C[C@H](O)CNS(=O)(=O)c1ccc2c(c1)OCCO2 | 4.47 to 6.69
CCc1ccc(S(=O)(=O)NC[C@@H](O)C[C@@H](Cc2ccccc2)C(=O)N[C@H]2c3ccccc3C[C@H]2O)cc1 | 4.34 to 5.95

Here is the next item to consider.
Asked: Requested read-out pIC50, target or system Vasoactive intestinal polypeptide receptor 2 (Homo sapiens, UniProt P41587), entry O=C(N[C@H]1c2ccccc2C[C@H]1O)[C@H](Cc1ccccc1)C[C@H](O)CNS(=O)(=O)c1ccc(Cl)cc1
Given back: 5.69 to 6.55

* * *

# EXPERIMENTAL_TARGET: UniProt P41587
# PROTOCOL_TEXT: Antagonist activity at recombinant human N-terminal signal peptide/FLAG epitope-tagged Rluc8-fused VIPR2 expressed in HEK293 cells assessed as inhibition of VIP-induced human mVenus-beta-arrestin2 binding at 5 uM preincubated for 5 mins with luciferin, coelenterazine H followed by VIP addition measured after 5 mins by BRET assay relative to control
# Format: cell-based
REPORTED_ENDPOINT: inhibition (%)

CHEM_SMILES | EXPERIMENTAL_TARGET | QUANTITY_UNIT | inhibition
CC(=O)c1ccc(S(=O)(=O)NC[C@@H](O)C[C@@H](Cc2ccccc2)C(=O)N[C@H]2c3ccccc3C[C@H]2O)cc1 | UniProt P41587 | % | 88.7

[P] CC(C)c1ccc(S(=O)(=O)NC[C@@H](O)C[C@@H](Cc2ccccc2)C(=O)N[C@H]2c3ccccc3C[C@H]2O)cc1
[Q] CC(C)C(=O)Nc1ccc(S(=O)(=O)NC[C@@H](O)C[C@@H](Cc2ccccc2)C(=O)N[C@H]2c3ccccc3C[C@H]2O)cc1
Asked: Rank P against Q by their inhibition values and give the higher one. Answer by quoting the chosen item's label.
Given back: P
(P: 87.7%, Q: -7.5%)
